systemTested: T1, anti-FXI/FXIa antibody NOV1401
T1 construct: Captured through Fc in Octet, free in solution in SET (biotinylated NOV1401 used only on the detection plate), amine-coupled in SPR; also called anti-Factor XI antibody NOV1401; target antibody
T1 sequence (VL, as listed by the source): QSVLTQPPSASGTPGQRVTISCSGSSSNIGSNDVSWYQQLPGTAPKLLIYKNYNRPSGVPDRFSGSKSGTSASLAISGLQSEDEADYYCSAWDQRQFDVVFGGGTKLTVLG
assayRemarks: SPR (ProteOn XPR36), NOV1401 amine-coupled, Fab as analyte, 25 C, Langmuir 1:1
The following binders are shown together with reported kon values.
All answers are understood in M⁻¹ s⁻¹, so give the number only.

Below: 3 binders and their reported kon.
anti-NOV1401 Fab IDT1C, mammalian format (HC1 + LC1) (Fab, V domains shown) VH: QVQLLESGGGLVQPGGSLRLSCAASGFTFSDYAMSWVRQAPGKGLEWVSTIAYVGAPTHYADSVKGRFTISRDNSKNTLYLQMNSLRAEDTAVYYCAREGYSYRSIRFDYWGQGTLVTVSS VL: DIQMTQSPSSLSASVGDRVTITCRASQSISSNLNWYQQKPGKAPKLLIYAASNLQSGVPSRFSGSGSGTDFTLTISSLQPEDFATYYCLQFDHTPFTFGQGTKVEIKR; 250000
anti-NOV1401 Fab IDT1D (HC1 + LC2) (Fab, V domains shown, Cross-clone: heavy chain of IDT1C with light chain of IDT1A; expressed in 293 HEK cells; also called 1DT1D) VH: QVQLLESGGGLVQPGGSLRLSCAASGFTFSDYAMSWVRQAPGKGLEWVSTIAYVGAPTHYADSVKGRFTISRDNSKNTLYLQMNSLRAEDTAVYYCAREGYSYRSIRFDYWGQGTLVTVSS VL: DIQMTQSPSSLSASVGDRVTITCRASQSISSNLNWYQQKPGKAPKLLIYAASNLQSGVPSRFSGSGSGTDFTLTISSLQPEDFATYYCLQYYHLPYTFGQGTKVEIKR; 440000
anti-NOV1401 Fab IDT1 (parental, first generation) (Fab, V domains shown, also called parental Fab; parental antibody IDT1) VH: QVQLLESGGGLVQPGGSLRLSCAASGFTFSDYAMSWVRQAPGKGLEWVSVIDYSSSNTYYADSVKGRFTISRDNSKNTLYLQMNSLRAEDTAVYYCAREGYSYRSIRFDYWGQGTLVTVSS VL: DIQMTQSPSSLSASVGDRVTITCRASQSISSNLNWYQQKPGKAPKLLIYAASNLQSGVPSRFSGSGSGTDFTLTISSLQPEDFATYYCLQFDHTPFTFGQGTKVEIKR; 550000

Kindly review the next binder as well.
[Q] Reported kon for anti-NOV1401 Fab IDT1E (HC2 + LC2) (Fab, V domains shown, Cross-clone: heavy chain of IDT1B with light chain of IDT1A; expressed in 293 HEK cells) VH: QVQLLESGGGLVQPGGSLRLSCAASGFTFSDYAMSWVRQAPGKGLEWVSTISYLGQEKHYADSVKGRFTISRDNSKNTLYLQMNSLRAEDTAVYYCAREGYSYRSIRFDYWGQGTLVTVSS VL: DIQMTQSPSSLSASVGDRVTITCRASQSISSNLNWYQQKPGKAPKLLIYAASNLQSGVPSRFSGSGSGTDFTLTISSLQPEDFATYYCLQYYHLPYTFGQGTKVEIKR : what is it?
[A] 690000
